- System under test: T1, human CLDN18.2 (human)
- T1 construct: also called claudin18.2
- Measurement protocol: FACS, KATOIII cells (natural CLDN18.2)
pEC50: −log10 of the molar value.

| Binder | pEC50 |
| --- | --- |
| humanized antibody hz40F6-2.3 (antibody, human IgG1, kappa, V domains shown) VH: QVQLVESGGGVVQPGRSLRLSCAASGFTLTSYGVYWVRQAPGKGLEWVAVVWAGGNTNYADALKGRFTISKDNSKSTLYLQMNSLRAEDTAVYYCARDRGRLLAMDYWGQGTLVTVSS VL: DIVMTQSPDSLAVSLGERATINCKSSQSLLNSGNQKNYLAWYQQKPGQPPKLLIYGASTRESGVPDRFSGSGSGTDFTLTISSLQAEDVAVYYCQNDYFFPFTFGQGTKVEIKR | 8.21 |
| IMAB362 (antibody, human IgG1, kappa, V domains shown, Positive control, prepared in-house; also called Claudiximab; TMAB362 [sic]) VH: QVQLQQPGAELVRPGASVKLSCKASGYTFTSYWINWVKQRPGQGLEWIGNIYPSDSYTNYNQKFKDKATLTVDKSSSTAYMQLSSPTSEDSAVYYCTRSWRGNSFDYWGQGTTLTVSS VL: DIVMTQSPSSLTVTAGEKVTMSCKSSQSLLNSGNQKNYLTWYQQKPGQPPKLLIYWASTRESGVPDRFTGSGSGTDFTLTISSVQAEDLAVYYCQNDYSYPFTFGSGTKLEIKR | 7.42 |
| humanized antibody hz40F6-2.1 (antibody, human IgG1, kappa, V domains shown) VH: QVQLVESGGGVVQPGRSLRLSCAASGFTLTSYGVYWVRQAPGKGLEWVAVVWAGGNTNYADSVKGRFTISKDNSKSTLYLQMNSLRAEDTAVYYCARDRGRLLAMDYWGQGTLVTVSS VL: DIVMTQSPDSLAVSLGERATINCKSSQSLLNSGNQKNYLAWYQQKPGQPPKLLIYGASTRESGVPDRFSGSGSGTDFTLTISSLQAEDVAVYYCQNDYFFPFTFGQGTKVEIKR | 8.06 |
| humanized antibody hz40F6-1.2 (antibody, human IgG1, kappa, V domains shown) VH: QVQLVESGGGVVQPGRSLRLSCAASGFTLTSYGVYWVRQAPGKGLEWVAVVWAGGNTNYNSALMSRFTISKDNSKSTLYLQMNSLRAEDTAVYYCARDRGRLLAMDYWGQGTLVTVSS VL: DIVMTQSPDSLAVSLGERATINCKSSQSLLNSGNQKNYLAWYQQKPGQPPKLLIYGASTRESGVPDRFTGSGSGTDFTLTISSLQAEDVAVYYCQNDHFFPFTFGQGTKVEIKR | 8.13 |
| humanized antibody hz40F6-1.4 (antibody, human IgG1, kappa, V domains shown) VH: QVQLVESGGGVVQPGRSLRLSCTVSGFTLTSYGVYWVRQAPGKGLEWVAVVWAGGNTNYNSALKGRFTISKDNSKSTLYLQMNSLRAEDTAVYYCARDRGRLLAMDYWGQGTLVTVSS VL: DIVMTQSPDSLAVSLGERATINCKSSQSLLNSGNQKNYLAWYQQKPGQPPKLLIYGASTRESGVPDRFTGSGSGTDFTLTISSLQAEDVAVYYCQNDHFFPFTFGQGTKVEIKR | 8.19 |
| humanized antibody hz40F6-2.4 (antibody, human IgG1, kappa, V domains shown) VH: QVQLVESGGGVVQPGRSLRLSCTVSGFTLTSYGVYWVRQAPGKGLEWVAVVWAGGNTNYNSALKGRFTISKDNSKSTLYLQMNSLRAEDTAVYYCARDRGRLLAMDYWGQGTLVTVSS VL: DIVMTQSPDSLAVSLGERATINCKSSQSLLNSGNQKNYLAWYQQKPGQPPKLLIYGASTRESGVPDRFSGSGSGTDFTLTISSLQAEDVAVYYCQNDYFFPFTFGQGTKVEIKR | 8.20 |
| humanized antibody hz40F6-1.3 (antibody, human IgG1, kappa, V domains shown) VH: QVQLVESGGGVVQPGRSLRLSCAASGFTLTSYGVYWVRQAPGKGLEWVAVVWAGGNTNYADALKGRFTISKDNSKSTLYLQMNSLRAEDTAVYYCARDRGRLLAMDYWGQGTLVTVSS VL: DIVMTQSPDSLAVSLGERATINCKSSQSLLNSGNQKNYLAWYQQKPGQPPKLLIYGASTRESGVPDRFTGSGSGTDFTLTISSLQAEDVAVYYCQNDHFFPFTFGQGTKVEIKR | 8.10 |
